Target: T1, human IL-6 (Interleukin-6) (human, UniProt P05231 30-212)
T1 construct: also called 001 IL-6 antigen
Test: Biacore (SPR), antibody captured on anti-human Fc, IL-6 as analyte
measure_name: pKd
Convention used: pKd is expressed as -log10 of the molar concentration.

Challenge: Requested field: pKd. Item: Anti-IL-6 Ab BA890 (antibody, V domains shown, Humanized monoclonal antibody) VH: QVQLVQSGAEVKKPGASVKVSCKASGFTFSSFAMSWIRQPPGKGLEWIGEISSGGSYTYYPDTVTGRFTISRDNAKNSLYLQMNSLRAEDTAVYYCARGLWGYYALDYWGQG VL: AIQLTQSPSSLSASVGDRVTITCSASSSVSYMYWYQQKPGQAPRLLIYDTSNLASGIPPRFSGSGYGTDFTLTINNIESEDAAYYFCQQWSGYPYTFGQG
Response given: 10.06

Challenge: Requested field: pKd. Item: Anti-IL-6 Ab BA808 (antibody, V domains shown, Humanized monoclonal antibody) VH: QVQLVQSGAEVKKPGASVKVSCKASGFTFSSFAMSWIRQSPSRGLEWLGEISSGGSYTYYPDTVTGRFTISRDNAKNSLYLQMNSLRAEDTAVYYCARGLWGYYALDYWGQG VL: EIVLTQSPATLSVSPGERATLSCSASSSVSYMYWYLQKPGQSPQLLIYDTSNLASGIPPRFSGSGYGTDFTLTINNIESEDAAYYFCQQWSGYPYTFGQG
Response given: 10.30

Okay, next one:
Challenge: Requested field: pKd. Item: Anti-IL-6 Ab BA802 (antibody, V domains shown, Humanized monoclonal antibody) VH: QVQLVQSGAEVKKPGASVKVSCKASGFTFSSFAMSWIRQSPSRGLEWLGEISSGGSYTYYPDTVTGRFTISRDNAKNSLYLQMNSLRAEDTAVYYCARGLWGYYALDYWGQG VL: EIVLTQSPDFQSVTPKEKVTITCSASSSVSYMYWYLQKPGQSPQLLIYDTSNLASGVPSRFSGSGSGTDFTLTISSLQPEDFATYYCQQWSGYPYTFGQG
Response given: 10.40
